Hello, the source for this data is ChEMBL document CHEMBL3227996, in case you need it.

Tested on: Cavia porcellus
EXPERIMENT: Inhibition of histamine-induced asthma-like syndrome in guinea pig assessed as time delay in appearance of coughing at 5 mg/kg, po treated 30 mins before histamine challenge (reference value: 6.13 mins)
Format: functional
ENDPOINT LABEL: Time
The answer consists of two parts: a number and, after it, its unit.

| MOLECULE | ENDPOINT LABEL | REPORTED MEASUREMENT |
| --- | --- | --- |
| CC(C)(C)NCC(O)c1ccc(O)c(COCCO)c1.Cl (configuration not stated) | Time | 5.97 min |

Query: Fill: Time (Cavia porcellus) for this molecule CC(C)(C)NCC(O)c1ccc(O)c(CO)c1 (configuration not stated) [ALBUTEROL]
Result: 19.13 min

Query: Fill: Time (Cavia porcellus) for this molecule CCOCCOCc1cc(C(O)CNC(C)(C)C)ccc1O.Cl (configuration not stated)
Result: 14.08 min

Query: Fill: Time (Cavia porcellus) for this molecule COCCOCc1cc(C(O)CNC(C)C)ccc1O.Cl (configuration not stated)
Result: 9.7 min

Query: Fill: Time (Cavia porcellus) for this molecule COCCOCc1cc(C(O)CNC(C)(C)C)ccc1O.Cl (configuration not stated)
Result: 15.18 min

Query: Fill: Time (Cavia porcellus) for this molecule COCc1cc(C(O)CNC(C)(C)Cc2ccccc2)ccc1O.Cl (configuration not stated)
Result: 11.83 min

Query: Fill: Time (Cavia porcellus) for this molecule CCOCc1cc(C(O)CNC(C)Cc2ccccc2)ccc1O.Cl (configuration not stated)
Result: 13.92 min

Query: Fill: Time (Cavia porcellus) for this molecule CC(C)NCC(O)c1ccc(O)c(O)c1 (configuration not stated) [ISOPROTERENOL]
Result: 17.67 min

Query: Fill: Time (Cavia porcellus) for this molecule COCc1cc(C(O)CNC(C)Cc2ccccc2)ccc1O.Cl (configuration not stated)
Result: 11.65 min

Query: Fill: Time (Cavia porcellus) for this molecule CCOCc1cc(C(O)CNC(C)(C)Cc2ccccc2)ccc1O.Cl (configuration not stated)
Result: 16.08 min

Query: Fill: Time (Cavia porcellus) for this molecule CCOCc1cc(C(O)CNC(C)C)ccc1O.Cl (configuration not stated)
Result: 14.03 min

Query: Fill: Time (Cavia porcellus) for this molecule COCc1cc(C(O)CNC(C)C)ccc1O.Cl (configuration not stated)
Result: 15.25 min
